- System: PC-3 prostate
- test: NCI tumour cell line growth inhibition, 48 h
Catalogue of compounds with associated TGI
measure: TGI

>>> readout_value("CCC(=O)Nc1ccc(NC(C#N)c2cccc(Oc3ccccc3)c2)cc1 (centres undefined)")
"> 100 µM"
>>> readout_value("S=C1CCSc2c(ccc3ccccc23)N1")
"> 100 µM"
>>> readout_value("CCN(CC)CC(O)CNc1c2ccc([N+](=O)[O-])cc2nc2cc(OC)c(OC)cc12 (centres undefined)")
"1.05 µM"
>>> readout_value("N#Cc1c(N2CCC(O)C2)c2ccccc2n2c1nc1ccccc12 (centres undefined)")
"> 100 µM"
>>> readout_value("Cc1ccc(/C(O)=C/C(=O)C(=O)NC23CC4CC(CC(C4)C2)C3)cc1")
"> 10 µM"
>>> readout_value("CN(/N=C/c1cccc2cccnc12)c1ccc(Cl)cc1[N+](=O)[O-]")
"> 100 µM"
>>> readout_value("COc1ccc(N2C(=O)C3c4[nH]c5ccc(Br)cc5c4C4CCC(C(C)(C)C)CC4C3C2=O)cc1 (centres undefined)")
"> 100 µM"
>>> readout_value("CC(C)=CCC/C(C)=C/CC/C(C)=C/CC/C(C)=C/CC/C(C)=C/CC/C(C)=C/CC/C(C)=C/CC/C(C)=C/CC/C(C)=C/CO")
"> 100 µM"
>>> readout_value("c1ccc(CN2COc3c(ccc4c3OCN(Cc3ccccc3)C4)C2)cc1")
"> 100 µM"
>>> readout_value("CC(C)=CCC[C@](C)(O)[C@H]1CC[C@]2(C)[C@@H]1CC[C@@H]1[C@@]3(C)CC/C(=N/O)C(C)(C)[C@@H]3CC[C@]12C")
"35.9 µM"
>>> readout_value("O=c1cc(-c2cccc3c2Sc2ccccc2S3)oc(N2CCOCC2)c1")
"20.9 µM"
>>> readout_value("C/C=C(\\C)C(O)C(C)C(O)C/C=C(C)/C=C(\\C)C/C(C)=C/C/C=C(\\C)C(O)C(C)c1ccc(CCC)c(=O)o1 (centres undefined)")
"21.3 µM"
>>> readout_value("COc1cc(C(=O)N2CCN(c3ncnc4ccccc34)CC2)c(N)cc1OCc1ccccc1")
"43.2 µM"
>>> readout_value("CC(=O)OCC1OC(n2c(-c3ccccc3)c(C(C)=O)c(-c3cccc4ccccc34)c(C#N)c2=S)C(OC(C)=O)C(OC(C)=O)C1OC(C)=O (centres undefined)")
"> 100 µM"
>>> readout_value("CCOC(=O)c1cc2c(cc1Cl)SC(N(c1ccc(OC)cc1)S(=O)(=O)c1ccc(Cl)cc1)=NS2(=O)=O")
"58.6 µM"
>>> readout_value("COC(=O)C(Cc1c[nH]c2ccccc12)NC(=O)c1ccc(-c2ccc(Cl)cc2Cl)o1 (centres undefined)")
"49.5 µM"
>>> readout_value("CC[C@@]1(C)CCC2c3ccc(O)cc3CC[C@H]2C1C (some centres undefined)")
"34 µM"
>>> readout_value("C=CCN(C(=O)OC(C)(C)C)[C@H](C)C(=O)N[C@@H](C)C(=O)OC")
"> 100 µM"
>>> readout_value("COc1ccc2ccccc2c1C1NC(=O)c2ccccc2N1 (centres undefined)")
"3.19 µM"

* * *

- Tested on: OVCAR-3 ovarian
- test: NCI tumour cell line growth inhibition, 48 h
# TGI values compiled below
measure: TGI

>>> readout_value("CC12CCC3(OCCO3)C(OC(=O)c3ccccc3)=C1CCC21OCCO1 (stereo not given)")
"> 100 µM"
>>> readout_value("CC(=O)OCC1OC(Nn2c(=O)[nH]c3ccccc3c2=O)C(OC(C)=O)C(OC(C)=O)C1OC(C)=O (stereo not given)")
"> 100 µM"
>>> readout_value("Cn1c(=O)c2c(nc3n2CCCC(=O)N3CC(O)CCl)n(C)c1=O (stereo not given)")
"> 100 µM"
>>> readout_value("Nc1nnnn1CCO")
"> 100 µM"
>>> readout_value("CC(=O)C1=C(O)C=C2Oc3c(C(=O)/C=C/c4c(Cl)cccc4Cl)c(O)c(C)c(O)c3[C@]2(C)C1=O")
"4.22 µM"
